Measured DC50 of individual entries
- Study Target: SMARCA4-HiBiT (Homo sapiens, UniProt P51532)
- Construct: SMARCA4-HiBiT knock-in Hela monoclonal cell (CS3023226); host or cells: HeLa monoclonal knock-in line (CRISPR HiBiT knock-in at the endogenous locus, heterozygous)
- Sequence (P51532 whole entry): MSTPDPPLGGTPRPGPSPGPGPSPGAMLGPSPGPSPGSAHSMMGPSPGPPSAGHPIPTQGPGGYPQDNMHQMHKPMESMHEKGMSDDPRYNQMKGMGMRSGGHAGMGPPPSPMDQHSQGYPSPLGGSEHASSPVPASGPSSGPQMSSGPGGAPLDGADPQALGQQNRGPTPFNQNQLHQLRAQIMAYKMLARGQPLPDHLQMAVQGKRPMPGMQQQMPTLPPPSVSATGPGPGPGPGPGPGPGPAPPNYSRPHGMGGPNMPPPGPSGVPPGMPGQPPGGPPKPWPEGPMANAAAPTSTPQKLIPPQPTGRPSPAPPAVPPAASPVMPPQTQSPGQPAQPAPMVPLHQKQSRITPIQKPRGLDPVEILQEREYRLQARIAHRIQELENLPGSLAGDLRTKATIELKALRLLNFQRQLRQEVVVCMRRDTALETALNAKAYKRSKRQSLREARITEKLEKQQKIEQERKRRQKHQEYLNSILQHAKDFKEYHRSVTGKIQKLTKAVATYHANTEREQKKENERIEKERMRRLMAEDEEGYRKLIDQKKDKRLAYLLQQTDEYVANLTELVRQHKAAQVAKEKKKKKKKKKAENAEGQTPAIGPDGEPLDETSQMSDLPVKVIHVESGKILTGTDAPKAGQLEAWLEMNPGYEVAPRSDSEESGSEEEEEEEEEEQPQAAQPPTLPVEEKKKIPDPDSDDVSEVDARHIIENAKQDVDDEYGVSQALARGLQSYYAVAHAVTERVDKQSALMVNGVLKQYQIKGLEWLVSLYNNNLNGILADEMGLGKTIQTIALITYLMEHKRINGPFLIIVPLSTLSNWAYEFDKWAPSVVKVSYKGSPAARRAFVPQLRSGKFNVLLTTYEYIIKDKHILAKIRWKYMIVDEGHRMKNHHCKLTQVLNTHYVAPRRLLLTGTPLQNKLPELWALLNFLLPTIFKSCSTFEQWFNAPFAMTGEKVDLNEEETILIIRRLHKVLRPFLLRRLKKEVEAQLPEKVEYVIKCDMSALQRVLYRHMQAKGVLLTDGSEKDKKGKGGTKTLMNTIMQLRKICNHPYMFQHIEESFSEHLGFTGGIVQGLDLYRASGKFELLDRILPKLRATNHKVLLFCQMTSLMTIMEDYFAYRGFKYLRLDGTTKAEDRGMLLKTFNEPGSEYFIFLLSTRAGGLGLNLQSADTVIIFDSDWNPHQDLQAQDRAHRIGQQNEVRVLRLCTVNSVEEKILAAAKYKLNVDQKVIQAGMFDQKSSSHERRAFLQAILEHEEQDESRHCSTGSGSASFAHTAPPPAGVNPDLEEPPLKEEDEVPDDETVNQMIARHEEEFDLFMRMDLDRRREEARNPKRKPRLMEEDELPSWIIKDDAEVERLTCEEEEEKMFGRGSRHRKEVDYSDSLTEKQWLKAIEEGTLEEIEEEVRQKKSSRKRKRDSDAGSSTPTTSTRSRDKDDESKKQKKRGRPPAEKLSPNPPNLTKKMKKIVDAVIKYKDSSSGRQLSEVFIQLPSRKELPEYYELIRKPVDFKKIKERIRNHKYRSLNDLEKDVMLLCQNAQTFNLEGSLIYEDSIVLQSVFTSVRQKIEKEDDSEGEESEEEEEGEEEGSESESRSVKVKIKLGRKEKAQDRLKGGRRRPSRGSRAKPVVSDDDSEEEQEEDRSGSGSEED
- Experiment: SMARCA4 HiBiT degradation assay in HeLa cells
- Type: cell-based
- Setup Conditions: 18 hours incubation, read-out: HeLa-HiBit-SM4 DC50

Example entries and their recorded answers appear below.
1. CC12CNc3nnc(-c4ccccc4O)cc3N1CCN(C1CCN(CCCc3ccc4c(c3)c3cccnc3n4C3CCC(=O)NC3=O)CC1)C2 (stereo not shown) [Example 25]
< 10 nM
2. O=C1CCC(N2C(=O)c3ccc(N4CCCC(CN5CCO[C@@H](CN6CCN7c8cc(-c9ccccc9O)nnc8NC[C@H]7C6)C5)C4)cc3C2=O)C(=O)N1 (stereo partly shown) [Example 79]
< 10 nM
3. CC1(CN2CCN3c4cc(-c5ccccc5O)nnc4NC[C@H]3C2)CCN(CC2CCN(c3ccc4c(c3)CN(C3CCC(=O)NC3=O)C4=O)CC2)CC1 (stereo partly shown) [Example 250]
< 10 nM
4. CC1CN(CC2CCN(C(=O)N3CCN4c5cc(-c6ccccc6O)nnc5NC[C@H]4C3)CC2)CCN1c1ccc2c(c1)C(=O)N(C1CCC(=O)NC1=O)C2=O (stereo partly shown) [Example 272]
10 to 100 nM
5. C[C@@H]1C[C@H](CN2C[C@@H]3[C@H](C2)[C@H]3CN2CCN3c4cc(-c5ccccc5O)nnc4NC[C@H]3C2)CCN1c1ccc2c(c1)C(=O)N(C1CCC(=O)NC1=O)C2=O (stereo partly shown) [Example 183]
< 10 nM

DC50 for O=C1CCC(N2C(=O)c3ccc(N4CCC(F)(CN5CCC(CN6CCN7c8cc(-c9ccccc9O)nnc8NC[C@H]7C6)CC5)CC4)cc3C2=O)C(=O)N1 (stereo partly shown) [Example 48] ?
< 10 nM

Would you kindly repeat that for CC(C)(C)C(=O)OCN1C(=O)CCC(N2C(=O)c3ccc(N4CCC(CN5CCC(CN6CCN7c8cc(-c9ccccc9O)nnc8NC[C@H]7C6)CC5)CC4)cc3C2=O)C1=O (stereo partly shown) [Example 34] ?
< 10 nM

Also check O=C1CCC(N2C(=O)c3ccc(N4CC(CN5C[C@@H]6[C@H](C5)[C@H]6CN5CCN6c7cc(-c8ccccc8O)nnc7NC[C@H]6C5)C4)cc3C2=O)C(=O)N1 (stereo partly shown) [Example 109]
< 10 nM

And for O=C1CCC(N2C(=O)c3ccc(N4CCC(CN5CC6CC6(CN6CCN7c8cc(-c9ccccc9O)nnc8NC[C@H]7C6)C5)CC4)cc3C2=O)C(=O)N1 (stereo partly shown) [Example 172] ?
< 10 nM

// repeat for O=C1CCC(N2C(=O)c3ccc(N4CC5(CC(CN6CCC(CN7CCN8c9cc(-c%10ccccc%10O)nnc9NC[C@H]8C7)CC6)C5)C4)cc3C2=O)C(=O)N1 (stereo partly shown) [Example 147] and report
< 10 nM

Now this one: O=C1CCC(N2Cc3ccc(N4CCC(CN5CC6(C5)CN(C(=O)N5CCN7c8cc(-c9ccccc9O)nnc8NC[C@H]7C5)C6)CC4)cc3C2=O)C(=O)N1 (stereo partly shown) [Example 101]
10 to 100 nM

Next molecule up: O=C1CCC(N2C(=O)c3ccc(N4C[C@@H]5[C@@H](CN6CCC(CN7CCN8c9cc(-c%10ccccc%10O)nnc9NC[C@H]8C7)CC6)[C@@H]5C4)cc3C2=O)C(=O)N1 (stereo partly shown) [Example 154]
< 10 nM

Would you mind doing O=C1CCC(N2Cc3cc(C4CCN(C5CCN(CCCN6CCN7c8cc(-c9ccccc9O)nnc8NC[C@H]7C6)CC5)CC4)ccc3C2=O)C(=O)N1 (stereo partly shown) [Example 209] as well?
< 10 nM

Consider next the molecule CC1(C)CN(CC2CCN(c3ccc4c(c3)C(=O)N(C3CCC(=O)NC3=O)C4)CC2)CCN1C(=O)N1CCN2c3cc(-c4ccccc4O)nnc3NC[C@H]2C1 (stereo partly shown) [Example 105] in the same way.
< 10 nM

Now this one: CC(C1CCN(c2ccc3c(c2)C(=O)N(C2CCC(=O)NC2=O)C3=O)CC1)N1CCC(CCCN2CCN3c4cc(-c5ccccc5O)nnc4NC[C@H]3C2)CC1 (stereo partly shown) [Example 248]
< 10 nM
